Provenance of the data: patent US12060433B2

Biological target: T1, human CD73 (SEQ ID NO: 70) (Homo sapiens, UniProt P21589)
T1 construct: purchased BPS Bioscience
T1 sequence (P21589 27-549): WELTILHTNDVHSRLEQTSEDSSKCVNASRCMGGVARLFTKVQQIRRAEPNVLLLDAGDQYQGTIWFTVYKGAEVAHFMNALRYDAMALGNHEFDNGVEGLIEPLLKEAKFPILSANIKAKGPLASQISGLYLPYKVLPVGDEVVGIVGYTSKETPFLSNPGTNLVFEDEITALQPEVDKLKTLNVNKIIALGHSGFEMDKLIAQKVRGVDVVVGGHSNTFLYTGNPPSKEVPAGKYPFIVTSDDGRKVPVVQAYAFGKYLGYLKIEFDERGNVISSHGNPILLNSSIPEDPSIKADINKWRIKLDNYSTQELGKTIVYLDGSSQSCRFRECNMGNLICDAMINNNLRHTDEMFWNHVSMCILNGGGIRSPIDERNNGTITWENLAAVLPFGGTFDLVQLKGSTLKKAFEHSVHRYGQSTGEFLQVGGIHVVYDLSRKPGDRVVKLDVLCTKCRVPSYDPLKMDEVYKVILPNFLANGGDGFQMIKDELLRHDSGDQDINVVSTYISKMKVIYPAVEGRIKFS
Assay: SPR (Biacore 8K) binding affinity and kinetics to human CD73
Conditions: human CD73, open conformation, 25° C.
endpoint: kd (s⁻¹)
Numbers only; they are read as s⁻¹.

1. CL25_hu_11-6: humanized CL25 antibody, VH and VL in FIG. 1B (antibody, V domains shown) VH: QVQLVQSGAEVKKPGASVKVSCKASGYTFTSYGLSWVRQATGQGLEWMGEIYPGSGNTYYNEKFKGRVTMTANTSISTAYMELSSLRSEDTAVYYCARYDYLGSSYGFDYWGAGTTVTVSS VL: AIRMTQSPSSFSASTGDRVTITCKASQDVSTAVAWYQQKPGKAPKLLIYSASYRYSGVPSRFSGSGSGTDFTLTISCLQSEDFATYYCQQHYNTPYTFGGGTKLEIK: 0.00101

// next entry
Consider the molecule shown here: CL25_hu_10-4: humanized CL25 antibody, VH and VL in FIG. 1A (antibody, V domains shown) VH: EVQLVQSGAEVKKPGESLKISCKGSGYTFTSYGLSWVRQMPGKGLEWMGEIYPGSGNTYYNEKFKGQVTISADKSISTAYLQWSSLKASDTAMYYCARYDYLGSSYGFDYWGAGTTVTVSS VL: DIQMTQSPSSLSASVGDRVTITCKASQDVSTAVAWYQQKPGKAPKLLLYSASYRYSGVPSRFSGSGSGTDYTLTISSLQPEDFATYYCQQHYNTPYTFGGGTKLEIK What is its recorded kd? 0.00107
